Value source: paper PMC11062899

Test system: porcine pancreatin
assay notes: Peptide stability in simulated intestinal fluid (SIF)
Format: in vitro ADME
condition context: after 8 h vs 0 h (TIC); average of R1-R3
Binary label based on SIF stability, Residual peptide Average with cut-off 90: below gives rule met, not below gives rule not met.

[
  {
    "molecule": "C[C@@H]1NC(=O)[C@@H](NC(=O)c2ccc(Cl)s2)CSCc2cccc(n2)CSCCNC(=O)[C@H]2CCCN(C2)C1=O [compound 30]",
    "class name": "rule not met"
  },
  {
    "molecule": "O=C1NCCSCc2cccc(n2)CSC[C@H](NC(=O)c2ccc(Cl)s2)C(=O)N[C@@H](CO)C(=O)NCc2ccc1cc2 [compound 25]",
    "class name": "rule not met"
  },
  {
    "molecule": "O=C1CC2CCN(CC2)C(=O)[C@H](Cc2ccccc2)NC(=O)[C@@H](NC(=O)c2ccc(Cl)s2)CSCCS(=O)(=O)CCSCCN1 [compound 13]",
    "class name": "rule not met"
  },
  {
    "molecule": "O=C1C[C@H]2CCCN2C(=O)[C@H](Cc2ccccc2)NC(=O)[C@@H](NC(=O)c2ccc(Cl)s2)CSCCS(=O)(=O)CCSCCN1 [peptide 11]",
    "class name": "rule met"
  },
  {
    "molecule": "CC(C)[C@@H]1NC(=O)[C@@H](NC(=O)c2ccc(Cl)s2)CNC(=O)CCSCc2cccc(n2)CSCCNC1=O [compound 19]",
    "class name": "rule met"
  }
]

###

target or test system: human α-thrombin (Homo sapiens, UniProt P00734)
assay notes: Sub-library screen for active and permeable cyclic peptides (PAMPA plus thrombin inhibition)
Assay type: biochemical
condition context: PAMPA acceptor well after 14 h, 5 μM donor; crude; slopes normalized to DMSO
readout: Residual thrombin activity: Top sample

[
  {
    "structure": "O=C1C[C@H]2CCCN2C(=O)[C@H](Cc2ccccc2)NC(=O)[C@@H](NC(=O)c2ccc(Cl)s2)CSCc2cccc(c2)CSCCN1",
    "readout": "Residual thrombin activity: Top sample",
    "reported": 92.1
  },
  {
    "structure": "O=C1C[C@H]2CCCN2C(=O)[C@H](Cc2ccc(Cl)cc2)NC(=O)[C@@H](NC(=O)c2ccc(Cl)s2)CCCSC/C=C/CSCCN1",
    "readout": "Residual thrombin activity: Top sample",
    "reported": 100.7
  },
  {
    "structure": "O=C1C[C@H]2CCCN2C(=O)[C@@H](Cc2ccccc2)NC(=O)[C@@H](NC(=O)c2ccc(Cl)s2)CSCc2cccc(c2)CSCCN1",
    "readout": "Residual thrombin activity: Top sample",
    "reported": 100.5
  },
  {
    "structure": "CN1C(=O)[C@@H](NC(=O)c2ccc(Cl)s2)CSCc2ccc(cc2)CSCCNC(=O)C[C@H]2CCCN2C(=O)[C@@H]1Cc1ccccc1",
    "readout": "Residual thrombin activity: Top sample",
    "reported": 91.1
  },
  {
    "structure": "O=C1C[C@H]2CCCN2C(=O)[C@H](Cc2ccc(Cl)cc2)NC(=O)[C@@H](NC(=O)c2ccc(Cl)s2)CCCSCc2cccc(n2)CSCCN1",
    "readout": "Residual thrombin activity: Top sample",
    "reported": 99.1
  },
  {
    "structure": "O=C1C[C@H]2CCCN2C(=O)[C@@H](Cc2ccccc2)NC(=O)[C@@H](NC(=O)c2ccc(Cl)s2)CCSC/C=C/CSCCN1",
    "readout": "Residual thrombin activity: Top sample",
    "reported": 98.4
  }
]

###

target or test system: human α-thrombin (Homo sapiens)
assay notes: Sub-library screen for active and permeable cyclic peptides (PAMPA plus thrombin inhibition)
Assay type: biochemical
condition context: PAMPA acceptor well after 14 h, 5 μM donor; crude; slopes normalized to DMSO
Residual thrombin activity: Top sample listing for selected compounds.
readout: Residual thrombin activity: Top sample

[
  {
    "compound": "Cc1cccc(C[C@@H]2NC(=O)[C@@H](NC(=O)c3ccc(Cl)s3)CSCC(=O)CSCCNC(=O)C[C@H]3CCCN3C2=O)c1 [C1-X37-L7]",
    "target or test system": "human α-thrombin (Homo sapiens)",
    "readout": "Residual thrombin activity: Top sample",
    "reported": 94.3
  },
  {
    "compound": "O=C1C[C@H]2CCCN2C(=O)[C@@H](Cc2ccccc2)NC(=O)[C@@H](NC(=O)c2ccc(Cl)s2)CSC/C=C/CSCCN1 [C1-X31-L4]",
    "target or test system": "human α-thrombin (Homo sapiens)",
    "readout": "Residual thrombin activity: Top sample",
    "reported": 96.8
  },
  {
    "compound": "O=C1C[C@H]2CCCN2C(=O)[C@H](Cc2ccc(Cl)cc2)NC(=O)[C@@H](NC(=O)c2ccc(Cl)s2)CCSCc2ccccc2CSCCN1 [C2-X34-L6]",
    "target or test system": "human α-thrombin (Homo sapiens)",
    "readout": "Residual thrombin activity: Top sample",
    "reported": 93.6
  },
  {
    "compound": "O=C1C[C@H]2CCCN2C(=O)[C@@H](Cc2ccccc2)NC(=O)[C@@H](NC(=O)c2ccc(Cl)s2)CCSCCS(=O)(=O)CCSCCN1 [C2-X31-L2]",
    "target or test system": "human α-thrombin (Homo sapiens)",
    "readout": "Residual thrombin activity: Top sample",
    "reported": 98.7
  },
  {
    "compound": "COc1ccc(C[C@@H]2NC(=O)[C@@H](NC(=O)c3ccc(Cl)s3)CCCSCc3ccc(cc3)CSCCNC(=O)C[C@H]3CCCN3C2=O)cc1 [C3-X33-L3]",
    "target or test system": "human α-thrombin (Homo sapiens)",
    "readout": "Residual thrombin activity: Top sample",
    "reported": 102.2
  },
  {
    "compound": "O=C1C[C@H]2CCCN2C(=O)[C@@H](Cc2ccccc2)NC(=O)[C@@H](NC(=O)c2ccc(Cl)s2)CCSCc2ccccc2CSCCN1 [C2-X31-L6]",
    "target or test system": "human α-thrombin (Homo sapiens)",
    "readout": "Residual thrombin activity: Top sample",
    "reported": 92.4
  },
  {
    "compound": "COc1ccc(C[C@@H]2NC(=O)[C@@H](NC(=O)c3ccc(Cl)s3)CCCSCC(=O)CSCCNC(=O)C[C@H]3CCCN3C2=O)cc1 [C3-X33-L7]",
    "target or test system": "human α-thrombin (Homo sapiens)",
    "readout": "Residual thrombin activity: Top sample",
    "reported": 103.1
  },
  {
    "compound": "O=C1C[C@H]2CCCN2C(=O)[C@H](Cc2ccc(C(F)(F)F)cc2)NC(=O)[C@@H](NC(=O)c2ccc(Cl)s2)CCCSC/C=C/CSCCN1 [C3-X36-L4]",
    "target or test system": "human α-thrombin (Homo sapiens)",
    "readout": "Residual thrombin activity: Top sample",
    "reported": 103.6
  },
  {
    "compound": "N#Cc1ccc(C[C@@H]2NC(=O)[C@@H](NC(=O)c3ccc(Cl)s3)CCSCCS(=O)(=O)CCSCCNC(=O)C[C@H]3CCCN3C2=O)cc1 [C2-X35-L2]",
    "target or test system": "human α-thrombin (Homo sapiens)",
    "readout": "Residual thrombin activity: Top sample",
    "reported": 102.9
  },
  {
    "compound": "O=C1C[C@H]2CCCN2C(=O)[C@H](Cc2ccc(C(F)(F)F)cc2)NC(=O)[C@@H](NC(=O)c2ccc(Cl)s2)CCCSCc2cccc(n2)CSCCN1 [C3-X36-L1]",
    "target or test system": "human α-thrombin (Homo sapiens)",
    "readout": "Residual thrombin activity: Top sample",
    "reported": 102.2
  },
  {
    "compound": "O=C1C[C@H]2CCCN2C(=O)[C@H](Cc2ccccc2)NC(=O)[C@@H](NC(=O)c2ccc(Cl)s2)CCSC/C=C/CSCCN1 [C2-X5-L4]",
    "target or test system": "human α-thrombin (Homo sapiens)",
    "readout": "Residual thrombin activity: Top sample",
    "reported": 61.9
  },
  {
    "compound": "O=C1C[C@H]2CCCN2C(=O)[C@H](Cc2ccc(C(F)(F)F)cc2)NC(=O)[C@@H](NC(=O)c2ccc(Cl)s2)CSCCS(=O)(=O)CCSCCN1 [C1-X36-L2]",
    "target or test system": "human α-thrombin (Homo sapiens)",
    "readout": "Residual thrombin activity: Top sample",
    "reported": 99.0
  }
]

###

assay notes: Metabolic stability in rat liver microsomes (RLMs)
condition context: rat, microsomes, Metabolic stability: Half life T1/2 (min), RLMs; mean and SD, three measurements

[
  {
    "compound": "O=C1C[C@H]2CCCN2C(=O)[C@H](Cc2ccccn2)NC(=O)[C@@H](NC(=O)c2ccc(Cl)s2)CSCCS(=O)(=O)CCSCCN1 [compound 12]",
    "half-life / min": 18.2
  },
  {
    "compound": "O=C1CCSCc2ccc(cc2)CSCCNC(=O)[C@H](CNC(=O)c2ccc(Cl)s2)NC(=O)[C@H](Cc2ccccn2)N1 [compound 21]",
    "half-life / min": 17.6
  },
  {
    "compound": "O=C1NCCSCc2cccc(n2)CSCCC(=O)N2CCC[C@H]2C(=O)N2CCN(C(=O)c3ccc(Cl)s3)CC12 (stereo partly drawn) [compound 23]",
    "half-life / min": 18.8
  }
]
